- targetDesc: IL-17A(FLAG-Tagged): IL-17RA(His-Tagged) (Homo sapiens, UniProt Q16552, K93Q)
- Sequence (Q16552 with tags, fused parts or gaps K93Q): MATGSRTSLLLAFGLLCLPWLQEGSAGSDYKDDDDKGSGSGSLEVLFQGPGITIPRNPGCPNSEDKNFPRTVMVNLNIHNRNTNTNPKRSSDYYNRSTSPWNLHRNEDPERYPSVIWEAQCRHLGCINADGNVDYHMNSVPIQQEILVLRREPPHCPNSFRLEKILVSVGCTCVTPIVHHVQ
- assayName: IL-17A(FLAG-Tagged): IL-17RA(His-Tagged) Binding Disruption Eu-HTRF Assay
- recordedConditions: disruption of IL-17A/IL-17RA binding; simple average if tested more than once
As shown below, each of these compounds has a reported IC50 value.
property: IC50 (nM)

compound	targetDesc	property	resultNumber
O=C(CC1CC(F)(F)C1)N[C@H](c1ccn2cc([C@@H](NC(=O)c3conc3CCC(F)(F)F)C3CCC(F)(F)CC3)nc2n1)C1CC1	IL-17A(FLAG-Tagged): IL-17RA(His-Tagged) (Homo sapiens, UniProt Q16552, K93Q)	IC50	2300
CC(CC(=O)N[C@H](c1ccn2cc([C@@H](NC(=O)c3ccnc(CC(F)(F)F)c3)C3CCC(F)(F)CC3)nc2n1)C1CC1)C(F)(F)F (single isomer, unassigned) [Example 3]	IL-17A(FLAG-Tagged): IL-17RA(His-Tagged) (Homo sapiens, UniProt Q16552, K93Q)	IC50	3100
O=C(CC1CC(F)(F)C1)N[C@@H](c1ccn2cc([C@@H](NC(=O)c3nonc3C3CC3)C3CCC(F)(F)CC3)nc2n1)C1CC1	IL-17A(FLAG-Tagged): IL-17RA(His-Tagged) (Homo sapiens, UniProt Q16552, K93Q)	IC50	91
Cc1conc1C(=O)N[C@H](c1cn2ccc([C@H](NC(=O)CC3CC3(F)F)C3CC3)nc2n1)C1CCC(F)(F)CC1 (single isomer, unassigned) [Example 54]	IL-17A(FLAG-Tagged): IL-17RA(His-Tagged) (Homo sapiens, UniProt Q16552, K93Q)	IC50	460
O=C(CCC(F)(F)F)N[C@@H](c1ccn2cc([C@@H](NC(=O)c3ccnc(CC(F)(F)F)c3)C3CCC(F)(F)CC3)nc2n1)C1CC1	IL-17A(FLAG-Tagged): IL-17RA(His-Tagged) (Homo sapiens, UniProt Q16552, K93Q)	IC50	160
Cc1nonc1C(=O)N[C@H](c1cn2ccc([C@H](NC(=O)CCC(F)(F)F)C3CC3)nc2n1)C1CCC(F)(F)CC1	IL-17A(FLAG-Tagged): IL-17RA(His-Tagged) (Homo sapiens, UniProt Q16552, K93Q)	IC50	130

---

As shown below, each of these compounds has a reported IC50 value.
- targetDesc: IL-17A(FLAG-Tagged): IL-17RA(His-Tagged) (Homo sapiens, UniProt Q16552, K93Q)
- assayName: IL-17A(FLAG-Tagged): IL-17RA(His-Tagged) Binding Disruption Eu-HTRF Assay
- recordedConditions: disruption of IL-17A/IL-17RA binding; simple average if tested more than once
property: IC50 (nM)

compound	targetDesc	property	resultNumber
O=C(CC1CC(F)(F)C1)N[C@@H](c1ccn2cc([C@@H](NC(=O)c3nocc3CC(F)(F)F)C3CCC(F)(F)CC3)nc2n1)C1CC1	IL-17A(FLAG-Tagged): IL-17RA(His-Tagged) (Homo sapiens, UniProt Q16552, K93Q)	IC50	220
O=C(CC1CC(F)(F)C1)N[C@@H](c1ccn2cc([C@@H](NC(=O)c3ncnn3CC3CC3)C3CCC(F)(F)CC3)nc2n1)C1CC1	IL-17A(FLAG-Tagged): IL-17RA(His-Tagged) (Homo sapiens, UniProt Q16552, K93Q)	IC50	290
CC(CC(=O)N[C@@H](c1ccn2cc([C@@H](NC(=O)c3ncnn3CC3CC3)C3CCC(F)(F)CC3)nc2n1)C1CC1)C(F)(F)F (single isomer, unassigned) [Example 19]	IL-17A(FLAG-Tagged): IL-17RA(His-Tagged) (Homo sapiens, UniProt Q16552, K93Q)	IC50	260
